- tested.on: T1, Epidermal growth factor receptor 2 (HER2 or ErbB-2) on HER2+ SKOV3 cells (human, UniProt P04626 23-1255)
- T1 construct: whole, on cells; Only claim 72 calls it 'human epidermal growth factor receptor 2 (HER2)'
- experiment.summary: split-luciferase complementation on HER2+ SKOV3 cells (lysates, washed); paired with 9.29-β9
Signal-to-Background (Ratio of Relative Luminescence Units) listing for selected binders.
Respond with the bare value in ratio.

These recorded examples may help you get a feel for the data.
binder | result.units | reading
G3-β10* (designed binder, DARPin fusion expressed in E. coli; Used as lysate in the screen and later IMAC-purified; also called DARPin G3 with C-terminal β10*) MRGSHHHHHHGSDLGKKLLEAARAGQDDEVRILMANGADVNAKDEYGLTPLYLATAHGHLEIVEVLLKNGADVNAVDAIGFTPLHLAAFIGHLEIAEVLLKHGADVNAQDKFGKTAFDISIGNGNEDLAEILQKLNGGGSGGGGSGGGGSGVSGWRLFKKIS | ratio | 31
β10*-G3 (designed binder, DARPin fusion expressed in E. coli, used as lysate; also called DARPin G3 with N-terminal β10*) MVSGWRLFKKISGGGSGHHHHHHHHGGGSGDLGKKLLEAARAGQDDEVRILMANGADVNAKDEYGLTPLYLATAHGHLEIVEVLLKNGADVNAVDAIGFTPLHLAAFIGHLEIAEVLLKHGADVNAQDKFGKTAFDISIGNGNEDLAEILQKLN | ratio | 11
β10*-L73J (Fab, V domains shown, Fab fusion expressed in E. coli, used as lysate; also called 73J Fab with β10* at the N-terminus of the light chain) VH: EVQLVESGGGLVQPGGSLRLSCAASGFNLYSSYIHWVRQAPGKGLEWVASIYPYSSYTSYADSVKGRFTISADTSKNTAYLQMNSLRAEDTAVYYCARYYGFAMDYWGQGTLVTVSS VL: DIQMTQSPSSLSASVGDRVTITCRASQSVSSAVAWYQQKPGKAPKLLIYSASSLYSGVPSRFSGSRSGTDFTLTISSLQPEDFATYYCQQGYYYPFTFGQGTKVEIKR | ratio | 9
β10*-9.29 (designed binder, DARPin fusion expressed in E. coli, used as lysate; also called DARPin 9.29 with N-terminal β10*) MVSGWRLFKKISGGGSGHHHHHHHHGGGSGGSDLGKKLLEAARAGQDDEVRILMANGADVNAHDFYGITPLHLAANFGHLEIVEVLLKHGADVNAFDYDNTPLHLAADAGHLEIVEVLLKYGADVNASDRDGHTPLHLAAREGHLEIVEVLLKNGADVNAQDKFGKTPFDLAIDNGNEDIAEVLQKAA | ratio | 1

Input: Note Signal-to-Background (Ratio of Relative Luminescence Units) for the binder shown: 73JH-β10* (Fab, V domains shown, Fab fusion expressed in E. coli, used as lysate; also called 73J Fab with β10* at the C-terminus of the heavy chain) VH: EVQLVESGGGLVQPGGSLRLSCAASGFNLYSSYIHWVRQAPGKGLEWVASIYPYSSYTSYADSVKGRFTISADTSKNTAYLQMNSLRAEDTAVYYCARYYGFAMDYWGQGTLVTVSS VL: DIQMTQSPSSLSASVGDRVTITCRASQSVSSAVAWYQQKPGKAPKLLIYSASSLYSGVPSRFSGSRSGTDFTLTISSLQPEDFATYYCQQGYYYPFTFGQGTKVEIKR
Output: 39

src = patent US20180172692A1
